# test details: label from the status in PepcDB records
measurement type: protein production

Query: Returns the measured protein production for the input sequence. Input: MKTKYIIASLGLATLLSFGANAAVHQVNAEQAQNLQPMGTISVSQIGSTPMDMRQEIVAKAEKAGANSYRIIELKEGDNWHATAELYKLEHHHHHH
Reply: failed

Query: Returns the measured protein production for the input sequence. Input: MVSSSNNSSIAKAFVTVAAIFIIFAGIKTAANILVPFLLSVFIAIICNPLINKASEYKIPKAVSVIFVIVVFVTMAVFLTGLVGSSLNELSQQIPQYRIQLKEQFTWLTSFLNSHDIQLSSSIVTEYFDPAAAMGLAADMLSSFGSVMTNLFLIILTVVFMLFESSTIPHKLHLALDDPQMRLNQIERFLSSVNQYIAIKTLVSIATGCIVSLMLWIFGLDFFLLWGVLAFLLNYIPNIGSIIAAVPPMTLAILQLSIGEAGAIGLGFVLINMVMGNIIEPRYLGKGLGLSTLVVFLSLIFWGWLLGTVGMLLSVPLTMILKIGLESSPEGRWLAVMLSDEVELVDKTEQALLD
Reply: failed

Query: Returns the measured protein production for the input sequence. Input: MEIGIIGTGNIGGTLARKLIAAGHQVRVANSKGIHGVQSFADEIGATAVDVYGAVKGADAIILSIPLPALASLPNGFFDDLPETVPLIDTSNYYPGLRDPLIPEIDDGMTESVWVSQQLSHPVIKAFNNILAWSLAELGTPKGSASRLAIAVAGDNATLKQIVMNLVDDTGFDAIDAGSLEESWRQQPSTPAYCCDYDAETMKKGLTAAVRGEAASKRDRLPELFGKLGANPTHEDIVAMNRSLNPLEHHHHHH
Reply: not failed

Query: Returns the measured protein production for the input sequence. Input: AIAPLGEEKNGKCDGSIYVNNPHLDSMTDDILYHFNLGTSTHDLPKMFGDVKFVCVGGSPWRMKSFTEYIAKELGLVDPNAEYPNICAGTDRYAMYKVGPVLSVSHGMGIPSISIMLHELIKLLYHARCTDVTVVRIGTSGGIGLKPGTVVVTKQSVDSLFQPHLEQTILGKPVVRSTELDKELAEELLQCGKELGEFEIIIGNTMCTLDFYEGSNVFEDKCTRIAAYSFKIHVL
Reply: failed

Query: Returns the measured protein production for the input sequence. Input: MSFSDHFSAVAASYAKARPRYPQRWFRYLARIVPDRQRVWDCATGNGQAAIALAEYFSEVIGSDASAAQVRQARSHPRVQYLVFPAEATPLAPASLDLITVAQAAHWFDLPQFYIEAQRLLRPGGVIALWGYGLGSLNPAIDHVFNHFYRDWLDPYWPPERQWVEQAYEGLSFPFEPLPTPTFSMQCDWTLFDLLAYLRTWSGVQQFQRQRGFDPVWAIAPELQRVWGDPQRYRRITWPLFAKVGRWQPLEHHHHHH
Reply: not failed

Query: Returns the measured protein production for the input sequence. Input: ARYLDVTSRRDPEHSHRTYYVTGQVFFASADRFTASFDLREKVETLAIDLREAHFWDITAVAALDKVVLKLRRAGISVDVVGMNRATATLVDRFGVHDKPDGIDSLMGH
Reply: failed

Query: Returns the measured protein production for the input sequence. Input: MDILDLNKAQAVQQNEQEVEDKERESKEPVVLEDLSALAWLELEEFSRLSGLPKERILELVNLGKIKSKISSNKLLIDASSGTNALIKKVENSLISMDMNGRSLEPVFVEKTINTILNLHDKVIGAKDETISAFKNENMFLKDALISMQEVYEEDKKTIDLLRDELNQAREEIEFMKRKYRLMWGKVADMSSVNKK
Reply: failed

Query: Returns the measured protein production for the input sequence. Input: MAAMQWCGAMTRRIMMTQRTSAALNCSARYSSLSPACAAPAVSEMDLCGRGDKKTKKGKRFKGSYGNSRGKKQKMIERIKDKLELPRSTPWPLPFKLI
Reply: not failed

Query: Returns the measured protein production for the input sequence. Input: MNTKPVLVILGPTASGKTELAFRIARQTGGEIISADSRQIYRGMDIGTAKPPRWMLDEVKHHFIDKKEIGEPFSAGDFAEQAAEKIRELHQRGITPVVAGGSTLYLEGLLKGFAELPPADPEIRAQLTRELERHGAEALYRRLEALDPEQAKTLDPTKTQRLIRSLEIIEISGTTVTALQSKTPGPPTGINFTVIGLDLPRELLYERINQRTSAMIQAGLEAEARYLFDKFRDEWRSKNLNALATVGYRELFEHFEELHDLDTAVSLIAQHTRNYAKRQLTFFRNRLDVEWVKAPLDEAEIEALVEFFSTRQDDSVPHSPIAIAKKQNA
Reply: failed

Query: Returns the measured protein production for the input sequence. Input: MTRAINDPGNEDPGSLLETDADALLGGAAAQAPEERCRLAAQACIRACERYLALCTESSREQRQHAGDCADLCRLAALLLERRSPWAPAACELAARYALACAERCDGDEPLERECAGACRRFVEACRPLLPALEHHHHHH
Reply: not failed

Others:
Query: Returns the measured protein production for the input sequence. Input: MPTLIVLIGPTGVGKTELSLRLAENFHTSIVSADSRQLYAELKIGTAAPTPDQLKRVPHYLVGTLHLTDYYSAAQYEQEAMEILHQLFTEHEVVVLTGGSMMYVDAICKGIDDIPTVDAETRQVMLQKYEEEGLEQLCAELRLLDPDYYRIVDLKNPKRVIHALEICYMTGKTYTSFRTQQKKERPFRILKIGLTRDREELYDRINRRVDQMMEEGLLDEVRSVLSYRHLNSLNTVGYKELFKYLDGEWELPFAIEKIKQNSRIYSRKQMTWFKRDEEIRWFHPEQETEILEYLRLQNLTHLPSLDTFLEHHHHHH
Reply: not failed

Query: Returns the measured protein production for the input sequence. Input: MGSFHRRTFSYDKLPNEPIRLSVLKLDGSSFDVYVLTSATVGDLKVAIETAFSHVPKKGPSKISWSHVWGHFCLCFGGQKLITDTDCIGNYGMKDGDEVRFKNHVSGNAVLSKGYSRKSKQKNLERVLPKDGDEVLNRIEEIDDSWDDLERGGLVMYKDDDMETSSNESNRSCLSTVHGCCFAFGLKELLGFGNDRAYYSLRDTWRDD
Reply: failed

Query: Returns the measured protein production for the input sequence. Input: MAAPLAPWRVSAFNTAKQSENKMHDDTVARRFGFTGGLVPGVEVMAYMMHLPVARWGRDFLERGLIEARFVKPVYDGETATVTGEEQGEAITLAVESRGELCATGSASLPVRAPAVDLGAYPETAAATNRPPVGAQSFPEGHWFGTAPVNWGGAKLRDYLDEIRETDPIYRSDDLIHPGTLQRIMNRVLVDNVVLGPWIHVGSKMQLLAAARGDDVLTARAKVVANYDKKGHRFAEFDALIVANGDRPVAHCHHVAIFAPRQQAAA
Reply: failed

###

# test details: label from the status in PepcDB records
measurement type: protein production

Query: Returns the measured protein production for the input sequence. Input: MKLASGFLVLWLSLGGGLAQSDTSPDTEESYSDWGLRHLRGSFESVNSYFDSFLELLGGKNGVCQYRCRYGKAPMPRPGYKPQEPNGCGSYFLGLKVPESMDLGIPAMTKCCNQLDVCYDTCGANKYRCDAKFRWCLHSICSDLKRSLGFVSKVEAACDSLVDTVFNTVWTLGCRPFMNSQRAACICAEEEKEEL
Reply: failed

Query: Returns the measured protein production for the input sequence. Input: MKTTPDILDQIRVHGADAYPEEGCGFLLGTVTDDGDNRVAALHRATNRRSEQRTRRYELTADDYRAADAAAQEQGLDVVGVYHSHPDHPARPSATDLEEATFPGFTYVIVSVRDGAPEALTAWALAPDRSEFHREDIVRPDPEAPLEHHHHHH
Reply: failed

Query: Returns the measured protein production for the input sequence. Input: MPSAMNERTVAELEKLLRYIAANLKQRGREILTNYPITPPQFVALQWLLEEGDLTVGELSNKMYLACSTTTDLVDRMERNGLVARVRDEHDRRVVRIRLLEKGERIIEEVIEKRQRDLANVLESFSDEEIVVFERCLRKLHQEMTKE
Reply: not failed

Query: Returns the measured protein production for the input sequence. Input: AADKRIDGNGNPETREIKISDYDEITFVGSADFEYEQSDKAPYLSVTIDENLFDYLVTEVEGGTLKIYPKSIKKGFNNNSYDLRPTVYKIKSNSKELKELNTVGSGSFIISKPTKVNRMEINMAGSGNVELRGPVKGYKLECNMAGSGNIIAKDIQLDNLSCSLASSGEIEVIGTVDRASFNVAGSGEIKAFDCQARKAECNIASSGEISVYATQILDANIVGSGEIHYKGDPEISKSIMGSGSINKVK
Reply: not failed

Query: Returns the measured protein production for the input sequence. Input: MGHHHHHHSHMISWLTGEELHVEVLENVPLTTHNFVRKTFFTLAFCDFCRKLLFQGFRCQTCGYKFHQRCSTEVPLMCVNYDQLDLLFVSKFFEHHPIPQEEASLAETA
Reply: not failed

Query: Returns the measured protein production for the input sequence. Input: MKFALQINEGPYQHQASDSAYQFAKAALEKGHEIFRVFFYHDGVNNSTRLTTPPQDDRHIVNRWAELAEQYELDMVVCVAAAQRRGIVDEGEASRNGKDATNIHPKFRISGLGQLVEAAIQADRLVVFGD
Reply: not failed

Others:
Query: Returns the measured protein production for the input sequence. Input: MSGDMEATGWGYTHISVDSFCHKWTISNFSFCMDGIMETITSPKFSLKASDKVEWGLKVHPNGIDEESKNYLSVYLALLHCQKSPVWAKYEFWIINSQGEKYQSRKSTKVVSFHKNKYRGFKKFILRDFLFSNPHRLLPEDQLTLCCQVSIMGAFFKTPGQSITPAVPDPRHMMADDLGELWENSLCTDCCLLVAGQEFRAHKAILAARSPVFRAMFEHQMEERLTNRVDINGLDPKVFKEMMGFIYTGKAPHLHIHSMACDLLAAADRYGLEGLKVMCEDALCRNLSVENAAHTLILADLHNIEQLKTQALDFIALHASEVSENSEWKSMMESHPHLVAETFHSLASAQCFLEPSIKHLK
Reply: failed
